Target: PCSK9 (Homo sapiens (Human), UniProt Q8NBP7)
Sequence (Q8NBP7 153-692): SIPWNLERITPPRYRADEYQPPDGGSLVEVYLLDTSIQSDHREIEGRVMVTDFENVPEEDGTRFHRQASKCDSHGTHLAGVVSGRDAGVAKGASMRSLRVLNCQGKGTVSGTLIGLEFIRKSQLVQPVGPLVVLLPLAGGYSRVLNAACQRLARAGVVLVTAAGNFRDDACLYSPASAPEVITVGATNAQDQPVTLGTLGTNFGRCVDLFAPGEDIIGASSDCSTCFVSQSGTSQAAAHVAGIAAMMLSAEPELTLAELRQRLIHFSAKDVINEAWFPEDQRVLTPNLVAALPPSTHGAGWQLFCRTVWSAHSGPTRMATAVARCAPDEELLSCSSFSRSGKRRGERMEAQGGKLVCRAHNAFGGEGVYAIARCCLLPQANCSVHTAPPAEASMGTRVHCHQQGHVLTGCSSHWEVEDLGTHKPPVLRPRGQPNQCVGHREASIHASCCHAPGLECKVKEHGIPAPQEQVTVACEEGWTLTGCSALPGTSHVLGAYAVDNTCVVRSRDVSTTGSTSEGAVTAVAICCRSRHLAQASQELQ
Assay: PCSK9 Alexa FRET Standard assay (displacement of AlexaFluor647 tagged cyclic peptide Reagent A)
Type: binding
Settings: PCSK9 Alexa FRET Standard assay, 0.5 nM PCSK9, 20 nM AF cyclic peptide Reagent A; read-out: IC50
pIC50: −log10 of the molar value. Starred links: 1 amine or outer side, 2 acyl side, 3 side chain; linkers in the order of their positions; H or OH if unused. Positions of bridges follow the written chain, without caps; N, C: chain ends. Non-standard residues stand in square brackets, D forms with d. Residues, ends and D or L forms follow the SMILES beside them. X5 = O=C([C@@H]1C[C@H](SCc2ccc(C[*:3])cc2)CN1[*:1])[*:2]; X24 = O=C(CCCCSc1c(F)c(F)c(SCCN[*:1])c(F)c1F)[*:2]; Phe(4-COOH) = N[C@@H](Cc1ccc(C(=O)O)cc1)C(=O)O; Trp(5-F) = N[C@@H](Cc1c[nH]c2ccc(F)cc12)C(=O)O; mXylylene = c1cc(C[*:1])cc(C[*:2])c1; X7 = O=C(Cc1ccc(CN[*:1])cc1)[*:2]; αMeP = C[C@@]1(C(=O)O)CCCN1; Mpa = O=C(O)CCS
Some compounds, each annotated with its measured pIC50.

Solved cases below.
COc1ccc(C[C@@H]2NC(=O)[C@H](Cc3cnc[nH]3)NC(=O)[C@H](CC(=O)O)NC(=O)[C@H](Cc3c[nH]c4ccc(F)cc34)NC(=O)[C@H](Cc3c[nH]c4ccc(F)cc34)NC(=O)[C@@H](C)NC(=O)Cc3ccc(cc3)CNC(=O)c3ccc(cc3)C[C@@H](C(N)=O)NC(=O)[C@]3(C)CCCN3C2=O)cc1 [Compound 391] ([X7][dA][Trp(5-F)][Trp(5-F)]DHY(Me)[αMeP][Phe(4-COOH)]-NH2; lactam N-9) = 6.00 to 7.00
COc1ccc(C[C@@H]2NC(=O)[C@H](Cc3cnc[nH]3)NC(=O)[C@H](CC(=O)O)NC(=O)[C@H](Cc3c[nH]c4ccc(F)cc34)NC(=O)[C@H](Cc3c[nH]c4ccc(F)cc34)NC(=O)[C@@H](C)NC(=O)CCCCSc3c(F)c(F)c(c(F)c3F)SCCNC(=O)[C@]3(C)CCCN3C2=O)cc1 [Compound 483] (cyclo(DHY(Me)[αMeP][X24][dA][Trp(5-F)][Trp(5-F)])) = 7.00 to 9.96
C[C@H]1NC(=O)[C@H](CCCCN)NC(=O)CCSCc2cccc(c2)CSC[C@@H](C(N)=O)NC(=O)[C@]2(C)CCCN2C(=O)[C@H](Cc2ccc(O)cc2)NC(=O)[C@H]([C@@H](C)O)NC(=O)[C@@H]2CCCN2C(=O)[C@H](Cc2c[nH]c3ccc(F)cc23)NC(=O)[C@H](Cc2c[nH]c3ccc(F)cc23)NC1=O [Compound 044] ([Mpa]K[dA][Trp(5-F)][Trp(5-F)]PTY[αMeP]C-NH2; linker 1-10 via mXylylene) = 6.00 to 7.00
COc1ccc(C[C@@H]2NC(=O)[C@H](Cc3cnc[nH]3)NC(=O)[C@H](CC(=O)O)NC(=O)[C@H](Cc3c[nH]c4ccc(F)cc34)NC(=O)[C@H](Cc3c[nH]c4ccc(F)cc34)NC(=O)[C@H](C)NC(=O)[C@H](NC(C)=O)CCc3cn(nn3)-c3ccc(cc3)C[C@@H](C(N)=O)NC(=O)[C@]3(C)CCCN3C2=O)cc1 [Compound 392] = 6.00 to 7.00

Below: the item to evaluate.
Q: Which pIC50 reading was recorded for the compound NCCCC[C@@H]1NC(=O)CCSCc2ccc(cc2)CS[C@H]2C[C@@H](C(N)=O)N(C2)C(=O)[C@H](Cc2ccc(O)cc2)NC(=O)[C@H](Cc2cnc[nH]2)NC(=O)[C@H](CC(=O)O)NC(=O)[C@H](Cc2c[nH]c3ccc(F)cc23)NC(=O)[C@H](Cc2c[nH]c3ccc(F)cc23)NC(=O)CNC1=O [Compound 328] ([Mpa]KG[Trp(5-F)][Trp(5-F)]DHY[X5]-NH2; thioether 1-9) ?
A: 6.00 to 7.00
